Tested on: SF-295 CNS
assay summary: NCI tumour cell line growth inhibition, 48 h
measurement name: TGI

Here's what some known entries look like.
| molecule | observed result |
| --- | --- |
| COC(=O)c1c2c(cc3c1CC1(C3)Cc3ccc4c(c3C1=O)CCC4)CCC2 (stereo not given) | > 28.8 µM |
| O=c1[nH]c(=O)n(C2OC(CO)C(O)C2O)cc1OCc1ccccc1 (stereo not given) | > 100 µM |
| C[CH2][Sn]([Cl])([CH2]C)[CH2]C | 3.92 µM |
| Nc1ccc(-c2nc3ccccc3s2)cc1I | > 100 µM |
| CC1=C2c3ccccc3N(S(=O)(=O)c3ccccc3)[C@H]2[C@H](C(=O)N2C3CC4CC[C@@]3(CS2(=O)=O)C4(C)C)CC1 (stereo not given in full) | > 100 µM |

Problem: Consider the molecule shown here: CC1C(=O)CC[C@@]2(C)C(=O)CCCC12O (stereo not given in full) What is its recorded TGI?
Solution: > 100 µM

Problem: Fill in: TGI of Cc1ccc(S(=O)(=O)NC(=O)C#CCOC2CCCCO2)cc1 (stereo not given) is ___
Solution: > 100 µM

Problem: Which TGI value belongs to Nc1ccc(-c2nc3ccc(Cc4ccc5nc(-c6ccc(N)cc6)oc5c4)cc3o2)cc1 ?
Solution: > 100 µM

Problem: Data request, read-out TGI, for COc1cccc(N2C(=O)[C@H]3[C@H]4CC(C(C)(C)C)CC[C@H]4c4c([nH]c5ccccc45)[C@H]3C2=O)c1 (stereo not given in full)
Solution: 29.2 µM

Problem: Look up TGI for this molecule: O=c1[nH]cnc2c1ncn2C1SC(CO)C(O)C1O (stereo not given)
Solution: > 100 µM

###

Tested on: T-47D breast
assay summary: NCI tumour cell line growth inhibition, 48 h
measurement name: TGI

Problem: Fill in the blank: the reported TGI of COc1cc(C2C(C(=O)OCc3ccccc3)=C(C)NC(C)=C2C(=O)OCc2ccccc2)cc(OC)c1OC is ____.
Solution: > 100 µM

###

System: HCT-15 colon
assay summary: NCI tumour cell line growth inhibition, 48 h
Quick reference: TGI of the listed items.

Consider the reported TGI for these molecules:
| molecule | system tested | TGI |
| --- | --- | --- |
| C/C=C(\C)C(=O)OC1C2C(C)C(=O)OC2C(O)C(C)C2C=CC(=O)C21C (configuration not stated) | HCT-15 colon | 34.5 µM |
| COc1ccc(OC)c(-c2cc(C(=O)O)c3cc4ccccc4cc3n2)c1 | HCT-15 colon | > 100 µM |
| Cc1cc(O)c(O)c(Oc2cc(C)cc(O)c2O)c1 | HCT-15 colon | 29.9 µM |
| O=C(NCCCCCCNC(=O)NC1OCC(O)C(O)C1O)NC1OCC(O)C(O)C1O (configuration not stated) | HCT-15 colon | > 100 µM |
| CC(=O)OC1CC(C)c2c(Cl)ncnc21 (configuration not stated) | HCT-15 colon | > 100 µM |

Problem: Fill blank: measured TGI of the molecule O=C1Cc2c(-c3ccccc3)cc(-c3ccc4ccccc4c3)nc2-c2ccccc2N1 is ____.
Solution: > 100 µM

Problem: Reported TGI for Cc1cccc2c(N)c3cccc(C(=O)NCCN4CCOCC4)c3nc12 : what is it?
Solution: 6.39 µM

Problem: Value lookup for TGI; key = COC(=O)C1CCC[C@H]2C(CO)=C(C)C(=O)[C@@H]12 (some centres not stated)
Solution: > 100 µM

Problem: Bench note: what TGI did O=C1C=C(NCCc2cc(Cl)c(O)c(Cl)c2)C(=O)c2[nH]cnc21 show?
Solution: > 100 µM

Problem: Data request, read-out TGI, for Cc1cccc(Nc2nc(NNC(=O)Cc3ccccc3)nc(NNC(=O)c3ccncc3)n2)c1
Solution: > 10 µM

Problem: What value of measured TGI is listed for CN(C)c1ccc(/C=C2\N=C(c3ccccc3)N(/N=C3\C(=O)Nc4ccccc43)C2=O)cc1 ?
Solution: > 100 µM

Problem: Field request: TGI | item: COc1ccc(CCN2COc3ccc4ccc(=O)oc4c3C2)cc1OC
Solution: > 100 µM

Problem: So what does the record say about TGI for Cc1cccc2c1NC(=O)C2(c1ccc(O)cc1)c1ccc(O)cc1 ?
Solution: > 100 µM

Problem: Which TGI is listed for O=[N+]([O-])c1ccc(NN=C2c3ccccc3Cc3ccccc32)c([N+](=O)[O-])c1 ?
Solution: > 100 µM

Problem: May I ask what TGI has been recorded for O=C(O)c1nc2cc(C(F)(F)F)ccc2[nH]c1=O ?
Solution: > 100 µM

###

Test system: HL-60(TB) leukemia
assay summary: NCI tumour cell line growth inhibition, 48 h
measurement name: GI50

A selection of reference data follows.
| structure | GI50 |
| --- | --- |
| O=C1CCCC(=O)C1C(=O)c1ccc(C(F)(F)F)cc1[N+](=O)[O-] | > 100 µM |
| O=C(Nc1ccc(O)c(NS(=O)(=O)c2ccc(F)cc2)c1)c1ccc(-c2ccccc2)cc1 | 1.4 µM |
| O=C(O)CP(=O)(c1ccccc1)c1ccccc1.O=C(O)CP(=O)(c1ccccc1)c1ccccc1.[Cd] | 15.9 µM |
| COc1cc(CCNc2nc3cc(N)cc(N)c3nc2-c2ccccc2)cc(OC)c1 | 1.25 µM |

Okay, next one:
Problem: # get_value(readout='GI50', item= c1ccc(C2=NN[C@H](c3cn(-c4ccccc4)nc3-c3ccccc3)C2)cc1 )
Solution: > 100 µM

###

System: 786-0 renal
assay summary: NCI tumour cell line growth inhibition, 48 h; in the data active = GI50 below about 0.43 µM; inactive = the rest
Allowed answers: YES (active), NO (inactive)

| structure | assigned label |
| --- | --- |
| CC#CC(=O)N[C@H]1CCCN(c2c(F)cc(C(N)=O)c3[nH]c(C)c(C)c23)C1 | NO |
| COc1ccc2cc(C(=O)/C=C/c3ccco3)ccc2c1 | NO |
| Cc1nc2sc(C(=O)Nc3cccc(Cl)c3C)c(N)c2cc1C(=O)c1ccccc1 | YES |

Now let's try a different one.
Problem: What classification did COc1ccc2c(c1)c(-c1nc(-c3cn(C)c4ncccc34)cs1)cn2CCCCN1CCOCC1 end up with in this test?
Solution: NO

###

Tested on: MDA-MB-231 breast
assay summary: NCI tumour cell line growth inhibition, 48 h
measurement name: TGI

Examples with their reported TGI follow.
| compound | TGI |
| --- | --- |
| COc1cc(C2C(C(=O)OCc3ccccc3)=C(C)NC(C)=C2C(=O)OCc2ccccc2)cc(OC)c1OC | > 100 µM |
| Cc1[nH]c2ccccc2c1C1=CC(=O)C=CC1=O | 29.2 µM |
| COc1ccc(NC(=O)CC(=O)n2nc(-c3ccccc3)c(N=Nc3ccccc3C)c2-c2ccccc2)cc1 | > 100 µM |
| C=CCN1C[C@@H](C)N([C@@H](c2ccccc2)c2ccc(C(=O)N(CC)CC)cc2)C[C@@H]1C | > 100 µM |
| Cc1ccc(N=Nc2c(C)nn(C(=O)CC(=O)Nc3ccc(Cl)cc3)c2C)cc1C | > 100 µM |
| Cc1n(-c2ccccc2)c2c([n+]1Cc1ccc([N+](=O)[O-])cc1)C(=O)c1ccccc1C2=O | 3.08 µM |
| Cc1cn(C2CC(N=[N+]=[N-])C(CO)O2)c(=O)n(CCCCO)c1=O (stereo not given) | > 100 µM |
| CCC(C)C(NC(=O)c1c2ccccc2nc2ccccc12)C(=O)O (stereo not given) | > 100 µM |

Problem: // lookup TGI | system=MDA-MB-231 breast | key= O=C1C(Cl)=C(Nc2cccc(O)c2)C(=O)N1c1ccc(Cl)cc1Cl
Solution: 77.5 µM

Problem: What TGI appears in the records for this compound with MDA-MB-231 breast? COc1cc2c(cc1O)-c1c(OC)c(O)cc3c1C(C2)N(C)CC3 (stereo not given)
Solution: > 100 µM

Problem: Request - read-out TGI | tested on MDA-MB-231 breast | compound CN1CC(S(=O)(=O)c2ccccc2)CC(S(=O)(=O)c2ccccc2)C1c1ccccc1 (stereo not given)
Solution: 31.8 µM

Problem: Lab note: need TGI for CN(C)c1ccc(/C=C2\N=C(c3ccccc3)N(/N=C3\C(=O)Nc4ccccc43)C2=O)cc1 on MDA-MB-231 breast, anyone have it?
Solution: > 100 µM

Problem: # query: TGI | item NN/C(=N\S(=O)(=O)c1cccc2nsnc12)Nc1ccc(Cl)cc1 | system: MDA-MB-231 breast
Solution: > 100 µM

Problem: // lookup TGI | system=MDA-MB-231 breast | key= CC(=O)OC1CC(C)c2c(Cl)ncnc21 (stereo not given)
Solution: > 100 µM

Problem: Checklist item: TGI tested on MDA-MB-231 breast, entry C[N+]1(CCCC[N+]2(C)CCCCCCC2)CCCCCCC1 , value?
Solution: > 100 µM

Problem: Give the reported TGI for COC(=O)c1cc(NC(=O)CN(CCN(CC(=O)O)CC(=O)Nc2ccc(O)c(C(=O)OC)c2)CC(=O)O)ccc1O (system: MDA-MB-231 breast).
Solution: > 100 µM

Problem: Hello, I am looking for reported TGI with MDA-MB-231 breast for O=C(NCc1cccs1)OC1CC2CCC1C2 (stereo not given) . Could you help?
Solution: > 100 µM

Problem: Query the reported TGI for MDA-MB-231 breast; item: COc1ccc2c(c1)c(-c1nc(-c3cn(C)c4ncccc34)cs1)cn2CCCCN1CCOCC1
Solution: 2.49 µM

Problem: // fetch MDA-MB-231 breast TGI for O=C1c2cscc2C(=O)c2c(OCc3ccccc3)ccc(OCc3ccccc3)c21
Solution: > 100 µM

Problem: Request: TGI, test system MDA-MB-231 breast, entry O=C(Nc1ccc(N2C(=O)CSC2c2cccs2)cc1)c1ccc(N2C(=O)CSC2c2cccs2)cc1 (stereo not given)
Solution: > 100 µM
